measured-target: D(4) dopamine receptor (Homo sapiens)
Sequence (P21917 whole entry): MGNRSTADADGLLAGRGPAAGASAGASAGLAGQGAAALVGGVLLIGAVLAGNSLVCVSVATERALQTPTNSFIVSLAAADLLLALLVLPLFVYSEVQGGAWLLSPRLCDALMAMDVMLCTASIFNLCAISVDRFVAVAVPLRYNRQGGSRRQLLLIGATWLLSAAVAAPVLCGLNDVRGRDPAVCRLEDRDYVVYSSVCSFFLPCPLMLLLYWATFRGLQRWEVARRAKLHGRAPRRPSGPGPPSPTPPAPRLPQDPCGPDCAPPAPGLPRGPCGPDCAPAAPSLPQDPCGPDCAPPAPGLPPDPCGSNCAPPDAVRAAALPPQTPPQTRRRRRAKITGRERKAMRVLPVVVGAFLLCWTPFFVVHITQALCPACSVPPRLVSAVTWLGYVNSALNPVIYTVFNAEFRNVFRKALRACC
assay-name: biochemical
pKi: −log10 of the molar value.
property: pKi

smiles_data=COc1ccc2[nH]cc(CN3CCC(O)(c4ccccc4)CC3)c2c1 property=pKi lt_gt_eq=< recorded_result=5.00
smiles_data=COc1ccc2[nH]cc(CN3CCC(O)(c4ccc(I)cc4)CC3)c2c1 property=pKi lt_gt_eq== recorded_result=6.89
smiles_data=OC1(c2ccc(Br)cc2)CCN(Cc2c[nH]c3cccc(OCCF)c23)CC1 property=pKi lt_gt_eq== recorded_result=6.18
smiles_data=OC1(c2ccc(Br)cc2)CCN(Cc2c[nH]c3ncccc23)CC1 property=pKi lt_gt_eq== recorded_result=6.21
smiles_data=OC1(c2ccc(Br)cc2)CCN(Cc2cc3ccccc3o2)CC1 property=pKi lt_gt_eq== recorded_result=6.60
smiles_data=CN1CN(c2ccccc2)C2(CCN(Cc3coc4ccccc34)CC2)C1=O property=pKi lt_gt_eq== recorded_result=6.31
smiles_data=O=C1N(CCF)CN(c2ccccc2)C12CCN(Cc1coc3ccccc13)CC2 property=pKi lt_gt_eq== recorded_result=6.02
smiles_data=OC1(c2ccc(Br)cc2)CCN(Cc2c[nH]c3ccc(OCCF)cc23)CC1 property=pKi lt_gt_eq== recorded_result=6.46
smiles_data=O=C1N(Cc2cn(CCF)nn2)CN(c2ccccc2)C12CCN(Cc1coc3ccccc13)CC2 property=pKi lt_gt_eq== recorded_result=6.01
smiles_data=OC1(c2ccc(I)cc2)CCN(Cc2c[nH]c3ncccc23)CC1 property=pKi lt_gt_eq== recorded_result=6.20
smiles_data=CSc1ccc(C2(O)CCN(Cc3c[nH]c4ncccc34)CC2)cc1 property=pKi lt_gt_eq== recorded_result=6.03
smiles_data=OC1(c2ccc(I)cc2)CCN(Cc2cc3ccccc3o2)CC1 property=pKi lt_gt_eq== recorded_result=6.61
